target: HLA-A*02 (human); experiment: UV peptide-exchange ELISA, yield grade
measure: peptide exchange yield

- ILAPFSVDL [ILAPFSVDL (SEQ ID NO: 37)]: 50 to 75%
- YLLPLLPAL [YLLPLLPAL (SEQ ID NO: 58)]: 50 to 75%
- TITETTVEV [TITETTVEV (SEQ ID NO: 31)]: 50 to 75%
- VLNPLITAV [VLNPLITAV (SEQ ID NO: 54)]: 50 to 75%
- SLLGGTFVGI [SLLGGTFVGI (SEQ ID NO: 130)]: 50 to 75%
- MLDKYSHYL [MLDKYSHYL (SEQ ID NO: 231)]: 50 to 75%
- RLLGTEFQV [RLLGTEFQV (SEQ ID NO: 154)]: 50 to 75%
- MMVGDLLEV [MMVGDLLEV (SEQ ID NO: 152)]: 50 to 75%
- SVVPDVRSV [SVVPDVRSV (SEQ ID NO: 65)]: 20 to 49%
- LLSPHNPAL [LLSPHNPAL (SEQ ID NO: 234)]: 50 to 75%
- NTCPYVHNI [NTCPYVHNI (SEQ ID NO: 265)]: 50 to 75%
- VLYDRPLKI [VLYDRPLKI (SEQ ID NO: 150)]: 50 to 75%
- FMVDKAIYL [FMVDKAIYL (SEQ ID NO: 262)]: 50 to 75%
- LLLGDSALYL [LLLGDSALYL (SEQ ID NO: 70)]: 50 to 75%
- ALFDSLRHV [ALFDSLRHV (SEQ ID NO: 6)]: 50 to 75%
- FLLGVSKEV [FLLGVSKEV (SEQ ID NO: 110)]: 50 to 75%
- QVIEDSTGV [QVIEDSTGV (SEQ ID NO: 48)]: 20 to 49%
- ALLAFFPGL [ALLAFFPGL (SEQ ID NO: 144)]: 50 to 75%
- ILGEVLAQL [ILGEVLAQL (SEQ ID NO: 132)]: 50 to 75%
- YLMDDTVEI [YLMDDTVEI (SEQ ID NO: 147)]: ≥ 75%
- ILDHEVPSL [ILDHEVPSL (SEQ ID NO: 7)]: 50 to 75%
- KLYEADFVL [KLYEADFVL (SEQ ID NO: 80)]: 20 to 49%
- AIVDLIHDI [AIVDLIHDI (SEQ ID NO: 111)]: 20 to 49%
- YLLEKNRVV [YLLEKNRVV (SEQ ID NO: 244)]: 20 to 49%
- YTLREVDTV [YTLREVDTV (SEQ ID NO: 73)]: 20 to 49%
- ILLEKILSL [ILLEKILSL (SEQ ID NO: 260)]: 50 to 75%
- AQADHLPQL [AQADHLPQL (SEQ ID NO: 88)]: 20 to 49%
- SISDNVWEV [SISDNVWEV (SEQ ID NO: 19)]: 50 to 75%
- RLMEICESL [RLMEICESL (SEQ ID NO: 252)]: 50 to 75%
- STIAILNSV [STIAILNSV (SEQ ID NO: 236)]: 50 to 75%
- FLAVGLVDV [FLAVGLVDV (SEQ ID NO: 69)]: 50 to 75%
- YMGEEKLIASV [YMGEEKLIASV (SEQ ID NO: 240)]: 50 to 75%
